Recorded GI50, one value per entry.
- System: HT-29
- experimental_details: NCI tumour cell line growth inhibition, 48 h
Active and inactive are the calls of the source. Cut-off read from the data, not from the text of the source: active = GI50 up to about 1.1 µM and inactive = higher.

// solved cases for GI50 follow
For the compound C(/C=N/N=C1NCCN1)=N\N=C1NCCN1 , give its measured GI50 value. > 100 µM (inactive)

For the compound Cc1cc(N(CCC#N)CCC#N)ccc1/C=C/C(=O)Nc1cccc(Cl)c1 , give its measured GI50 value. > 100 µM (inactive)

For the compound CCC(/C=C/C1OC(=O)C=CC1C)=C\C(C)C/C=C/C(C)=C/C(C)C(=O)C(C)C(O)C(C)C/C(C)=C/C(=O)O (stereo not given) , give its measured GI50 value. 3.01e-06 µM (active)

For the compound CC(CC[C@@H](O)C(C)(C)O)C1[C@@H](O)CC2(C)C3CC(O)C4C(C)(C)[C@@H](OC5OC(CO)C(O)C(O)C5O)CC[C@@]45C[C@@]35CC[C@]12C (stereo not given in full) , give its measured GI50 value. > 10 µM (inactive)

For the compound O=C(O)C1CCCCN1C(=O)Cc1c[nH]c2ccccc12 (stereo not given) , give its measured GI50 value. > 100 µM (inactive)

Others:
For the compound Cc1[nH]c2c(C)cccc2c1C1Cc2ccccc2N1 (stereo not given) , give its measured GI50 value. 19.5 µM (inactive)

For the compound Cc1ccc(C)c(NC(=O)C(=O)C(c2cnc3ccc([N+](=O)[O-])cc3n2)[N+](=O)[O-])c1 (stereo not given) , give its measured GI50 value. 61.2 µM (inactive)

For the compound CN1CCc2ccccc2C(C(=O)c2ccc3c(c2)OCO3)C1=O (stereo not given) , give its measured GI50 value. > 100 µM (inactive)

For the compound Cc1ccc(Nc2nc3ccccc3nc2NS(=O)(=O)c2ccc(N)cc2)cc1 , give its measured GI50 value. 68.4 µM (inactive)

For the compound O=C(O)CCC1(C(=O)O)CCC(=O)c2ccccc21 (stereo not given) , give its measured GI50 value. > 100 µM (inactive)

###

- Test system: 786-0
- experimental_details: NCI tumour cell line growth inhibition, 48 h
Activity calls are given as the source filed them. No stated cut-off is given here; in the data, active = GI50 up to about 1.1 µM and inactive = higher.
Assign a class; possible classes are active, inactive

Name the outcome recorded for COc1ccc(N2C(=O)C3c4[nH]c5ccc(C)cc5c4C4CCC(c5ccccc5)CC4C3C2=O)cc1 (stereo not drawn) in the assay. inactive

Name the outcome recorded for Cc1ccc(S(=O)(=O)c2[nH]cc(/C(=C\C3CCCCC3)[N+](=O)[O-])c2C2CCCCC2)cc1 in the assay. active

Name the outcome recorded for CCOP(=O)(OCC)C1CC(O)CN1OC(=O)C(C)(C)C (stereo not drawn) in the assay. inactive

Name the outcome recorded for N#Cc1c(=O)c2cccnc2n2c1[nH]c1ccccc12 in the assay. inactive

Name the outcome recorded for Nc1nc(Cl)cc(Oc2ccc(Cl)cc2)n1 in the assay. inactive

Name the outcome recorded for Cc1noc(NS(=O)(=O)c2ccc(NC(=O)c3ccc4[nH]c5ccccc5c(=O)c4c3)cc2)c1C in the assay. inactive

Name the outcome recorded for O=C(Nc1cccc(F)c1)c1cc2ccc(O)cc2o/c1=N\c1ccccc1F in the assay. inactive

Name the outcome recorded for N=C(N)NS(=O)(=O)c1ccc(NC(=O)c2cccc3c(Nc4ccc(S(=O)(=O)N=C(N)N)cc4)c4ccc(Cl)cc4nc23)cc1 in the assay. inactive

Name the outcome recorded for Cc1oncc1/N=C1\C=C(O)C(=O)c2ccccc21 in the assay. inactive

Name the outcome recorded for Cc1ncc([N+](=O)[O-])n1CCNC(=O)CCCn1ccnc1[N+](=O)[O-] in the assay. inactive

Others:
Name the outcome recorded for c1ccc(-c2cs[s+]c2)cc1 in the assay. inactive

Name the outcome recorded for N#CC(C(=N/NC(N)=S)/C(=N\NC(N)=S)C(C#N)c1ccccc1)c1ccccc1 (stereo not drawn) in the assay. inactive

Name the outcome recorded for Cc1c(CC/C(=N\Nc2ccc([N+](=O)[O-])cc2[N+](=O)[O-])c2ccccc2)c2ccccc2n1C in the assay. inactive

Name the outcome recorded for CNC(=O)N(CCC#N)[C@H]1CCCC[C@@H]1N(C(=O)NC)c1ccccc1 in the assay. inactive

Name the outcome recorded for CN(N)/N=N/c1[nH]cnc1C(N)=O in the assay. inactive

Name the outcome recorded for O=[N+]([O-])/C(C(Cl)=C(Cl)Cl)=C1\NCCO1 in the assay. inactive

Name the outcome recorded for O=C(O)C#CCO in the assay. inactive

Name the outcome recorded for COC(=O)C(c1ccc(OC)cc1)N1C(=O)[C@@H](NC(=O)c2ccccc2)[C@H]1[C@@H](C)O (stereo partly drawn) in the assay. inactive

Name the outcome recorded for CC(=O)Nc1ccc(C2[C@H]3C(=O)N(c4ccc(Cc5ccc(N6C(=O)[C@@H]7ON(c8ccccc8)C(c8ccc(NC(C)=O)cc8)[C@@H]7C6=O)cc5)cc4)C(=O)[C@H]3ON2c2ccccc2)cc1 (stereo partly drawn) in the assay. inactive

Name the outcome recorded for COC(=O)C(Cc1c(C2Nc3ccccc3C2CC(NC(=O)CNC(C)=O)C(=O)OC)[nH]c2ccccc12)NC(=O)CNC(C)=O (stereo not drawn) in the assay. inactive

Name the outcome recorded for COc1ccc2c(c1)c1ccc3c(c1n2C)C(=O)C=CC3=O in the assay. inactive

###

- Tested on: MDA-MB-231
- experimental_details: NCI tumour cell line growth inhibition, 48 h
Calls of active or inactive are those of the source. No stated cut-off is given here; in the data, active = GI50 up to about 1.1 µM and inactive = higher.
Assign a class; possible classes are active, inactive

A selection of reference data follows.
Name the outcome recorded for Nc1n[c-](N)[n+](=O)c(N)c1NCO in the assay. inactive

Name the outcome recorded for COc1cc2c(cc1OC)C(=O)N(c1ccc(O)cc1)C2 in the assay. inactive

Name the outcome recorded for C=C(Br)COc1ccc2c(C)cc(=O)oc2c1 in the assay. active

Name the outcome recorded for C/C=C/C(C/C=C(\C)CO[Si](C)(C)C(C)(C)C)O[Si](C)(C)C(C)(C)C (stereo not given) in the assay. inactive

Others:
Name the outcome recorded for CC1(C)CC(=O)C2=C(C1)OC1=C(CC(C)(C)CC1=O)C2c1ccccc1[N+](=O)[O-] (stereo not given) in the assay. inactive

Name the outcome recorded for CCCCCC/C=C\CCCCCCCCCc1cccc(OC)c1O in the assay. inactive

###

- Tested on: SF-539
- experimental_details: NCI tumour cell line growth inhibition, 48 h
Active and inactive are the calls of the source. No stated cut-off is given here; in the data, active = GI50 up to about 1.1 µM and inactive = higher.
Assign a class; possible classes are active, inactive

Name the outcome recorded for CNC(=O)N(CCC#N)[C@H]1CCCC[C@@H]1N(C(=O)NC)c1ccccc1 in the assay. inactive

Others:
Name the outcome recorded for COc1cc(O)cc2oc(-c3ccc(O)cc3)cc(=O)c12 in the assay. inactive

Name the outcome recorded for COc1cc2c(cc1OC)C(=O)N(c1ccc(O)cc1)C2 in the assay. inactive

Name the outcome recorded for Cc1ncc([N+](=O)[O-])n1CCNC(=O)CCCn1ccnc1[N+](=O)[O-] in the assay. inactive

Name the outcome recorded for COc1cc2cc(C(=O)N3C[C@H](CCl)c4c3cc(O)c3ccccc43)[nH]c2c(OC)c1OC in the assay. active

###

- Test system: ACHN
- experimental_details: NCI tumour cell line growth inhibition, 48 h
Active and inactive are the calls of the source. Cut-off read from the data, not from the text of the source: active = GI50 up to about 1.1 µM and inactive = higher.
Recorded GI50, one value per entry.

// solved cases for GI50 follow
Tell me its GI50 on ACHN: [O-][n+]1onc(-c2ccccc2)c1-c1no[n+]([O-])c1-c1c(-c2ccccc2)no[n+]1[O-] 4.81 µM (inactive)

Tell me its GI50 on ACHN: O=P1(O)c2ccccc2CSCc2ccccc21 > 100 µM (inactive)

Tell me its GI50 on ACHN: CCOC(=O)C(=O)Nc1c(F)cc(F)cc1Br > 100 µM (inactive)

Others:
Tell me its GI50 on ACHN: O=c1[nH]c(=O)n(C2OC(CO)C(O)C(F)C2O)cc1F (configuration not stated) > 100 µM (inactive)

Tell me its GI50 on ACHN: CC(=O)OC(OC(C)=O)n1cc(C=O)c2ccccc21 > 100 µM (inactive)

Tell me its GI50 on ACHN: Cc1cc(C)n(C(=C(C(Cl)=C(Cl)Cl)[N+](=O)[O-])n2nc(C)cc2C)n1 3.21 µM (inactive)

Tell me its GI50 on ACHN: O=S(=O)(O)c1ccc(/N=N/c2ccccc2)cc1 > 100 µM (inactive)

###

Recorded GI50, one value per entry.
- System: SK-OV-3
- experimental_details: NCI tumour cell line growth inhibition, 48 h
Active and inactive are the calls of the source. No stated cut-off is given here; in the data, active = GI50 up to about 1.1 µM and inactive = higher.

Tell me its GI50 on SK-OV-3: Cc1nc(Nc2ccc(Cl)c(Cl)c2)sc1C(/C=C/c1ccc2c(c1)OCO2)=N/Nc1ccc([N+](=O)[O-])cc1[N+](=O)[O-] > 91.8 µM (inactive)

Others:
Tell me its GI50 on SK-OV-3: O=C1C=C/C(=N\N=C(c2ccccc2)c2ccccc2)O1 > 10 µM (inactive)

Tell me its GI50 on SK-OV-3: O=S(O)CCCSSCCCCSSCCCS(=O)O > 100 µM (inactive)

Tell me its GI50 on SK-OV-3: CCN(CC)CCC1CCCCN1CC(=O)N1c2cc(Cl)ccc2NC(=O)CC1C (stereo not given) > 100 µM (inactive)

Tell me its GI50 on SK-OV-3: COc1cc(O)cc2oc(-c3ccc(O)cc3)cc(=O)c12 > 100 µM (inactive)

Tell me its GI50 on SK-OV-3: NC(=O)[C@H](Cc1ccc(O)cc1)NC1=C(Cl)C(=O)c2c(O)ccc(O)c2C1=O > 10 µM (inactive)

Tell me its GI50 on SK-OV-3: NCCSCC(N)C(=O)O (stereo not given) > 497 µM (inactive)

Tell me its GI50 on SK-OV-3: O=C1c2ccccc2N2OC3(N4CCCC4)CCCCC3C12c1ccccc1 (stereo not given) > 100 µM (inactive)

Tell me its GI50 on SK-OV-3: COc1cc(/C=C2\CCc3ccccc3C2=O)cc(OC)c1OC 18.6 µM (inactive)

Tell me its GI50 on SK-OV-3: O=S(=O)(O)c1ccc(/N=N/c2ccccc2)cc1 > 100 µM (inactive)

Tell me its GI50 on SK-OV-3: Cc1ccc(Cl)c2c1NC(=O)/C2=N\Nc1ccccc1[N+](=O)[O-] > 100 µM (inactive)
